Would you kindly list Log k'w for each of these compounds?

Below: 10 compounds and their reported Log k'w.
Cc1cccc(N(C)C(=S)Oc2ccc3ccccc3c2)c1 [TOLNAFTATE]    4.55
CN1C(=O)C(O)N=C(c2ccccc2Cl)c2cc(Cl)ccc21 (stereo unspecified)    2.4
Brc1cnc2ccccc2c1    2.54
CC(=O)CCCCn1c(=O)c2c(ncn2C)n(C)c1=O    0.16
Oc1cccc(Cl)c1    2.49
C[C@]12CC[C@@H]3c4ccc(O)cc4CC[C@H]3[C@@H]1CC[C@@H]2O    3.34
Oc1cc(Cl)cc(Cl)c1    3.4
C[C@]12CCC(=O)C=C1CC[C@@H]1[C@@H]2[C@@H](O)C[C@@]2(C)[C@H]1CC[C@]2(O)C(=O)CO [HYDROCORTISONE]    1.43
c1ccc(-c2ccc(C(c3ccccc3)n3ccnc3)cc2)cc1 (stereo unspecified)    4.37
Cn1c(=O)c2c(ncn2C)n(C)c1=O    -0.31

From here, focus on the item given below.
Provide one value: measured Log k'w of `O=[N+]([O-])c1ccc(/C=N/O)o1`
1.11
